target: 5-HT6 receptor (Homo sapiens); test: Binding assay for human 5-HT6 receptor ([3H]LSD radioligand); conditions: human recombinant receptor in HEK293 cells; [3H]LSD 1.5 nM; 37° C.; read-out: Radioligand binding data at 5-HT6 R (h) Ki
Sequence (P50406 whole entry): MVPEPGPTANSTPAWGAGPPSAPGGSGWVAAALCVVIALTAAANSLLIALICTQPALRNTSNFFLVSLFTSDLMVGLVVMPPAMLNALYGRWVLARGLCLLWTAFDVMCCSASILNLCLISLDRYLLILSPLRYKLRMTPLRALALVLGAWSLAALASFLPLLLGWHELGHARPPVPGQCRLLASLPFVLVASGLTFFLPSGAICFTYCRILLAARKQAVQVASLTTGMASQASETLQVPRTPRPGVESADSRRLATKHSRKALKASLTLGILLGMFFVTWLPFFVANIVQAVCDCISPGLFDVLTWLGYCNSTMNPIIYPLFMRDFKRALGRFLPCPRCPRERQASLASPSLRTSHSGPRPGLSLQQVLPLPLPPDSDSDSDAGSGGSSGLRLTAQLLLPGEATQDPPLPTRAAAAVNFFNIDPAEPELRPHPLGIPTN
Consider the following compounds and their measured log10 of Ki readings.
MEASURE: log10 of Ki (log10 of the value in nM)

{"columns": ["SMILES ENTRY", "log10 of Ki"],
 "data": [
  ["Cc1ccc(S(=O)(=O)n2ccc3cc(F)ccc32)cc1OCCCN(C)C", 1.10],
  ["CCc1ccc(S(=O)(=O)n2ccc3cc(F)ccc32)cc1OCCCN(C)C", 1.27],
  ["CCc1ccc(S(=O)(=O)n2ccc3cc(Br)ccc32)cc1OCCCN(C)C", 0.88],
  ["CCc1ccc(S(=O)(=O)n2ccc3ccccc32)cc1OCCCN(C)C", 1.55],
  ["Cc1ccc(S(=O)(=O)n2ccc3ccccc32)cc1OCCN(C)C", 0.44],
  ["Cc1ccc(S(=O)(=O)n2ccc3cc(F)ccc32)cc1OCCN(C)C", 0.77]
]}

----------
target: 5-HT6 receptor (Homo sapiens); experiment: Binding assay for human 5-HT6 receptor ([3H]LSD radioligand); conditions: human recombinant receptor in HEK293 cells; [3H]LSD 1.5 nM; 37° C.; read-out: Radioligand binding data at 5-HT6 R (h) Ki
pKi: −log10 of the molar value.
Use YES when the recorded pKi is no lower than 8; use NO when it is lower.

{"columns": ["SMILES ENTRY", "CLASSIFICATION"],
 "data": [
  ["CCc1ccc(S(=O)(=O)n2ccc3ccc(Cl)cc32)cc1OCCCN(C)C", "YES"],
  ["Cc1ccc(S(=O)(=O)n2ccc3ccccc32)cc1OCCCN(C)C", "YES"],
  ["COc1ccc2c(ccn2S(=O)(=O)c2ccc(C)c(OCCCN(C)C)c2)c1", "NO"]
]}

----------
biological target: 5-HT6 receptor (Homo sapiens); assay: Binding assay for human 5-HT6 receptor ([3H]LSD radioligand); set-up: expressed in transfected cells; host or cells: HEK293; conditions: 100 nM test compound; human recombinant receptor in HEK293 cells; [3H]LSD 1.5 nM; read-out: Radioligand binding data at 5-HT6 R (h) % Inhibition of specific binding at 100 nM
Counter-ions that a name gives are not always drawn.

{"columns": ["COMPOUND", "TARGET OR SYSTEM", "inhibition at 0.1 µM (%)"],
 "data": [
  ["CN1CCC(Oc2cccc(S(=O)(=O)n3ccc4cc(F)ccc43)c2)CC1", "5-HT6 receptor (Homo sapiens)", 61.7],
  ["COc1ccc2c(ccn2S(=O)(=O)c2ccc(OC)c(OC3CCNCC3)c2)c1.Cl [Example 56, hydrochloride]", "5-HT6 receptor (Homo sapiens)", 88.6],
  ["CCc1ccc(S(=O)(=O)n2ccc3cc(OC)ccc32)cc1OC1CCN(C)CC1", "5-HT6 receptor (Homo sapiens)", 89],
  ["COc1ccc2c(ccn2S(=O)(=O)c2cccc(OC3CCN(C)CC3)c2)c1", "5-HT6 receptor (Homo sapiens)", 58.2],
  ["Cc1ccc(S(=O)(=O)n2ccc3cc(F)ccc32)cc1OC1CCN(C)CC1 [Example 24, hydrochloride]", "5-HT6 receptor (Homo sapiens)", 89.4],
  ["COc1ccc2c(ccn2S(=O)(=O)c2ccc(C(C)C)c(OC3CCN(C)CC3)c2)c1", "5-HT6 receptor (Homo sapiens)", 31.5],
  ["CC(C)c1ccc(S(=O)(=O)n2ccc3cc(F)ccc32)cc1OC1CCN(C)CC1", "5-HT6 receptor (Homo sapiens)", 66.9],
  ["CN1CCC(Oc2cc(S(=O)(=O)n3ccc4cc(F)ccc43)ccc2Cl)CC1", "5-HT6 receptor (Homo sapiens)", 89.8],
  ["Cc1ccc(S(=O)(=O)n2cc(C)c3ccccc32)cc1OC1CCN(C)CC1", "5-HT6 receptor (Homo sapiens)", 99.7],
  ["COc1ccc(S(=O)(=O)n2ccc3cc(F)ccc32)cc1OC1CCN(C)CC1", "5-HT6 receptor (Homo sapiens)", 91.6]
]}

----------
Each entry below carries its recorded log10 Ki.
molecular target: 5-HT6 receptor (Homo sapiens); assay: Binding assay for human 5-HT6 receptor ([3H]LSD radioligand); details: human recombinant receptor in HEK293 cells; [3H]LSD 1.5 nM; 37° C.; read-out: Radioligand binding data at 5-HT6 R (h) Ki
MEASURE: log10 Ki (log10 of the value in nM)

{"columns": ["COMPOUND", "TARGET OR SYSTEM", "MEAS VALUE"],
 "data": [
  ["COc1ccc2c(ccn2S(=O)(=O)c2ccc(C)c(OCCN(C)C)c2)c1 [Example 13]", "5-HT6 receptor (Homo sapiens)", 1.05],
  ["Cc1ccc(S(=O)(=O)n2ccc3ccc(Cl)cc32)cc1OCCN(C)C [Example 15]", "5-HT6 receptor (Homo sapiens)", 0.20],
  ["CCc1ccc(S(=O)(=O)n2ccc3ccccc32)cc1OCCN(C)C [Example 26]", "5-HT6 receptor (Homo sapiens)", 0.28],
  ["Cc1ccc(S(=O)(=O)n2ccc3ccc(Cl)cc32)cc1OCCCN(C)C [Example 21]", "5-HT6 receptor (Homo sapiens)", 1.12],
  ["Cc1ccc(S(=O)(=O)n2ccc3cc(Br)ccc32)cc1OCCN(C)C [Example 12]", "5-HT6 receptor (Homo sapiens)", 1.45],
  ["COc1ccc2c(ccn2S(=O)(=O)c2ccc(C(C)C)c(OCCCN(C)C)c2)c1 [Example 43]", "5-HT6 receptor (Homo sapiens)", 1.80],
  ["CCc1ccc(S(=O)(=O)n2ccc3cc(F)ccc32)cc1OCCN(C)C [Example 30]", "5-HT6 receptor (Homo sapiens)", 0.74],
  ["Cc1ccc(S(=O)(=O)n2ccc3cc(Br)ccc32)cc1OCCCN(C)C [Example 18]", "5-HT6 receptor (Homo sapiens)", 1.07],
  ["CC(C)c1ccc(S(=O)(=O)n2ccc3ccccc32)cc1OCCN(C)C [Example 36]", "5-HT6 receptor (Homo sapiens)", 1.14]
]}

----------
Listing: melting point of selected compounds
MEASURE: melting point

{"columns": ["COMPOUND", "MEAS VALUE"],
 "data": [
  ["Cl.O=S(=O)(c1ccc(Cl)c(OC2CCNCC2)c1)n1ccc2ccc(Cl)cc21", "258.3 to 259.5 °C"],
  ["COc1ccc(S(=O)(=O)n2ccc3ccc(Cl)cc32)cc1OC1CCN(C)CC1 [Example 62]", "112 to 115 °C"],
  ["CCc1ccc(S(=O)(=O)n2cc(Br)c3cc(F)ccc32)cc1OC1CCNCC1.Cl", "289.9 to 291.5 °C"],
  ["COc1ccc(S(=O)(=O)n2ccc3cc(Br)ccc32)cc1OC1CCN(C)CC1 [Example 63]", "127.2 to 128 °C"],
  ["COc1ccc2c(c1)c(C)cn2S(=O)(=O)c1ccc(C(C)C)c(OC2CCN(C)CC2)c1 [Example 61]", "73.2 to 74.5 °C"],
  ["CCc1ccc(S(=O)(=O)n2cc(Br)c3cc(F)ccc32)cc1OC1CCN(C)CC1 [Example 67]", "133.2 to 134.5 °C"],
  ["CCc1ccc(S(=O)(=O)n2ccc3cc(F)ccc32)cc1OC1CCNCC1.Cl", "201.46 to 204.21 °C"],
  ["CC(C)c1ccc(S(=O)(=O)n2ccc3cc(F)ccc32)cc1OC1CCN(C)CC1 [Example 53]", "73.2 to 74.5 °C"],
  ["COc1ccc2c(ccn2S(=O)(=O)c2ccc(OC)c(OC3CCNCC3)c2)c1.Cl [Example 56]", "231.2 to 232.7 °C"]
]}
